The reported measurements were obtained from paper PMC10397247.

Molecular target: T1, 4H2586-bH
T1 chain: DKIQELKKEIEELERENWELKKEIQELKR
Test: two-hybrid library CCNG1;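 also: natural log of median RNA to DNA barcode read ratio; higher means stronger binding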
Label key: Met means interaction score under -1; Not met means interaction score of -1 or more.

binder="DENQELKKKIEELERKIWELEKKNQELER [4H1831-bH]" category=Met

Prompt: For this binder, is interaction score lower than -1? DEIQELEKEIEELKRKNWELEKKIQELKR [4H118-bH]
Completion: Not met

Prompt: Is interaction score strictly under -1 for the entry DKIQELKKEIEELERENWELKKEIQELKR [4H2586-bH] ?
Completion: Not met

Prompt: Input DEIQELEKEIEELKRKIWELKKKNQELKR [4H112-bH] ; condition: interaction score strictly below -1. Does it hold?
Completion: Not met

Prompt: interaction score strictly < -1 for this binder? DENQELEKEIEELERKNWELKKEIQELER [4H1081-bH]
Completion: Met

Prompt: interaction score under -1? Item: DENQELEKENEELEREIWELEKKIQELKR [4H1158-bH]
Completion: Not met
